The origin of these recorded values is patent US20120100989A1.

Test name: log P by HPLC on reversed-phase columns (C 18), EEC directive 79/831 Annex V.A8
Type: physicochemical
Run parameters: pH 2.7
# reported log P; entries follow
Property: log P

INSERT INTO results (mol_smiles, measured_number) VALUES
  ('O=C1ON=C(c2cccc([N+](=O)[O-])c2)C1=Cc1cccs1', 2.94),
  ('Cc1c(C=C2C(=O)ON=C2c2cc(F)ccc2Cl)sc2ccccc12', 4.32),
  ('O=C1ON=C(c2ccccc2[N+](=O)[O-])C1=Cc1ccc(Br)s1', 3.35),
  ('COc1cc(OC)cc(C2=NOC(=O)C2=Cc2ccc(C)s2)c1', 3.48),
  ('O=C1ON=C(c2ccccc2)/C1=C/c1ccc([N+](=O)[O-])s1', 3.27),
  ('O=C1ON=C(c2cc(Br)ccc2Cl)C1=Cc1cccs1', 3.74),
  ('Cc1ccc(C2=NOC(=O)C2=Cc2sccc2C)cc1', 3.57),
  ('Cc1ccc(C2=NOC(=O)C2=Cc2cc(Br)cs2)cc1', 4.09),
  ('O=C1ON=C(c2c(F)cccc2F)C1=Cc1cc(-c2ccccc2)cs1', 4.16);

* * *

Test name: log P by HPLC on reversed-phase columns (C 18), EEC directive 79/831 Annex V.A8
Format: physicochemical
Run parameters: pH 2.7
Property: log P

INSERT INTO results (compound, measured_number) VALUES
  ('Cc1ccsc1C=C1C(=O)ON=C1c1ccccc1OCc1ccccc1 [I-116]', 3.89),
  ('CCOc1ccccc1C1=NOC(=O)C1=Cc1ccc(Br)s1 [I-118]', 4.03),
  ('O=C1ON=C(c2ccccc2Cl)C1=Cc1ccc(Br)s1 [I-103]', 3.94);

* * *

Test name: log P by HPLC on reversed-phase columns (C 18), EEC directive 79/831 Annex V.A8
Format: physicochemical
Run parameters: pH 2.7
Quick rule for you: log P under 4 gets Criterion met, anything else gets Criterion not met.

INSERT INTO results (mol_smiles, class_label) VALUES
  ('O=C1ON=C(c2ccccc2OCc2ccccc2)C1=Cc1ccc(Br)s1', 'Criterion not met'),
  ('O=C1ON=C(c2ccccc2OCc2ccccc2)C1=Cc1cc(-c2ccccc2)cs1', 'Criterion not met'),
  ('O=C1ON=C(c2ccccc2C(F)(F)F)C1=Cc1cccs1', 'Criterion met'),
  ('COc1cccc(C2=NOC(=O)C2=Cc2ccc(Br)s2)c1', 'Criterion met');
